tested on: IFN induction in dsDNA-stimulated human whole blood; test: Human whole blood assay, dsDNA transfection, IFNα2a production (hWB IC50); format: cell-based;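 note: cGAS pathway activity, IFNα2a in plasma by MSD immunoassay after 22 h at 37 °C, 8 concentrations up to 10 µM in 0.1% DMSO, DMSO controls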
reported endpoint: IC50 (µM)
Quick reminder: number only, in µM, skip the unit.

Give me measured IC50, please, for this compound: `C#Cc1cnc(O[C@H]2C[C@@H](C(=O)O)N(c3nc(C(F)F)nc4c3oc3ccccc34)C2)c([C@@]2(F)CCN(C(C)=O)C[C@@H]2C)c1`
0.025

For the compound `C#Cc1cnc(O[C@H]2C[C@@H](C(=O)O)N(c3nc(C(F)(F)F)nc4c3oc3ccccc34)C2)c([C@]2(F)CCOC[C@@H]2C)c1` , give its reported IC50.
0.648

State, in one line, measured IC50 of `C#Cc1cnc(O[C@H]2C[C@@H](C(=O)O)N(c3nc(C(F)(F)F)nc4c3oc3ccccc34)C2)c([C@@]2(F)CC(C)(C)S(=O)(=O)C[C@@H]2C)c1`
0.016

Given `CNc1cc(-c2cnc(O[C@H]3C[C@@H](C(=O)O)N(c4nc(C(F)F)nc5c4oc4ccccc45)C3)c([C@@]3(F)CCOC[C@@H]3C)c2)ccn1` , respond with its IC50.
0.053

Give recorded IC50. `C#Cc1cnc(O[C@H]2C[C@@H](C(=O)O)N(c3nc(C(F)(F)F)nc4c3oc3ccccc34)C2)c([C@]2(F)CCS(=O)(=O)C(C)(C)C2)c1`
0.053

Return value of IC50 for input `CC(=O)N1CC[C@](F)(c2cc(Cl)cnc2O[C@H]2C[C@@H](C(=O)O)N(c3nc(C(F)F)nc4c3oc3ccccc34)C2)[C@@H](C)C1` , no commentary.
0.114

====

For each of the compounds below, state its IC50.
system: IFN induction in virus-stimulated THP1 cells; assay: Human cGAS cell assay, baculovirus-stimulated THP1-Dual cells, Lucia luciferase reporter (THP1(vir) IC50); format: cell-based; conditions: Homo sapiens, THP-1; baculovirus-stimulated THP1-Dual cells, 18 h;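 note: IRF-dependent luminescence, 8 concentrations up to 10 µM in 1% DMSO, 0% = unstimulated cells, 100% = DMSO plus virus, counter assay stimulated with cGAMP downstream of cGAS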
Supply the numeric figure in nM, leaving out any unit text.

Enter recorded IC50 with IFN induction in virus-stimulated THP1 cells for C#Cc1cnc(O[C@H]2C[C@@H](C(=O)O)N(c3nc(C(F)(F)F)nc4c3oc3ccccc34)C2)c(C2(F)CCS(=O)(=O)CC2)c1 [Example 2.07] here.
688

GET IC50 | system: IFN induction in virus-stimulated THP1 cells | item: CC(=O)N1CC[C@](F)(c2cc(Cl)cnc2O[C@H]2C[C@@H](C(=O)O)N(c3nc(C(F)F)nc4c3oc3ccccc34)C2)[C@@H](C)C1 [Example 1.22]
85

Name the recorded IC50 of CC(=O)N1CC[C@](F)(c2cc(-c3cccc(N(C)C)c3)cnc2O[C@H]2C[C@@H](C(=O)O)N(c3nc(C(F)F)nc4c3oc3ccccc34)C2)[C@@H](C)C1 [Example 3.04] , assay system IFN induction in virus-stimulated THP1 cells.
16

====

Task for the reader: assign each of the following molecules its reported pIC50.
target: Human cGAS (Homo sapiens (Human));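 note: compounds preincubated 60 min, then GTP and ATP (30 µM each) added for 90 min at room temperature, cGAMP read relative to cyclic-di-GMP internal standard, no-enzyme/DNA wells as 0%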
Sequence (Q8N884 whole entry): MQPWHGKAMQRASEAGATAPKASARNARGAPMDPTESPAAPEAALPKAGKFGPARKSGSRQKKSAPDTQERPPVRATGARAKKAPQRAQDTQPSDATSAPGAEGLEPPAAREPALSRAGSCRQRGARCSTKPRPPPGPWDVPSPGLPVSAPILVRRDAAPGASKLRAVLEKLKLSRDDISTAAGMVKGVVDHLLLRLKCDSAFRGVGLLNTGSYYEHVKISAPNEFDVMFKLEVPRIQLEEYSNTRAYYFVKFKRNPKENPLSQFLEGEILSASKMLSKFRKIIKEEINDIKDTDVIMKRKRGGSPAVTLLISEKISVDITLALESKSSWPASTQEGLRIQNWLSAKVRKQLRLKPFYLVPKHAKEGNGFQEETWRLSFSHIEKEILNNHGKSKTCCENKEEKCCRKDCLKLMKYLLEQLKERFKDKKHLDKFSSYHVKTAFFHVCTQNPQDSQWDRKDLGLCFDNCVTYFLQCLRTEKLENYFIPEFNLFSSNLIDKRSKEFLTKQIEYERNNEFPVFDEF
Keep in mind that pIC50 stands for -log10 of concentration in molar terms.

Annotate the molecule C[C@H]1CS(=O)(=O)CC[C@]1(F)c1cc(Cl)cnc1O[C@H]1C[C@@H](C(=O)O)N(c2nc(C(F)(F)F)nc3c2oc2ccccc23)C1 [Example 2.10] with its measured pIC50.
8.52

Supply pIC50 value. Item: O=C(O)[C@@H]1C[C@H](Oc2ncc(Cl)cc2[C@]2(F)CCS(=O)(=O)C3(COC3)C2)CN1c1nc(C(F)F)nc2c1oc1ccccc12 [Example 1.20]
8.52

Tell me pIC50 reported for C[C@H]1CN(C(N)=O)CC[C@]1(F)c1cc(Cl)cnc1O[C@H]1C[C@@H](C(=O)O)N(c2nc(C(F)F)nc3c2oc2ccccc23)C1 [Example 1.24]
8.15

Identify measured pIC50 associated with C[C@H]1CN(C2COC2)CC[C@]1(F)c1cc(Cl)cnc1O[C@H]1C[C@@H](C(=O)O)N(c2nc(C(F)F)nc3c2oc2ccccc23)C1 [Example 1.23]
7.82

Provide one value: measured pIC50 of COc1cncc(-c2cnc(O[C@H]3C[C@@H](C(=O)O)N(c4nc(C(F)F)nc5c4oc4ccccc45)C3)c([C@@]3(F)CCOC[C@@H]3C)c2)c1 [Example 6.02]
8.22

Annotate the molecule CC1(C)C[C@](F)(c2cc(Cl)cnc2O[C@H]2C[C@@H](C(=O)O)N(c3nc(C(F)F)nc4c3oc3ccccc34)C2)CCS1(=O)=O [Example 2.08] with its measured pIC50.
8.30

Supply measured pIC50 of O=C(O)[C@@H]1C[C@H](Oc2ncc(Cl)cc2[C@@]2(F)CCS(=O)(=O)C3(CC3)C2)CN1c1nc(C(F)F)nc2c1oc1ccccc12 [Example 1.18] in your reply.
8.05

Entry C#Cc1cnc(O[C@H]2C[C@@H](C(=O)O)N(c3nc(C(F)F)nc4c3oc3ccccc34)C2)c([C@@]2(F)CCN(C(C)=O)C[C@@H]2C)c1 [Example 2.20] needs its pIC50 filled in; supply it.
8.40

Using known records, supply pIC50 for CC(=O)N1CC[C@](F)(c2cc(-c3cccc(N(C)C)c3)cnc2O[C@H]2C[C@@H](C(=O)O)N(c3nc(C(F)F)nc4c3oc3ccccc34)C2)[C@@H](C)C1 [Example 3.04]
7.54

Quickly give me recorded pIC50 for C#Cc1cnc(O[C@H]2C[C@@H](C(=O)O)N(c3nc(C(F)(F)F)nc4c3oc3ccccc34)C2)c(C23CCOCC2C3)c1 (stereo partly drawn) [Example 4.01]
8.10

State its pIC50 for this molecule: O=C(O)[C@@H]1C[C@H](Oc2ncc(Cl)cc2[C@]2(F)CCS(=O)(=O)C3(CCC3)C2)CN1c1nc(C(F)F)nc2c1oc1ccccc12 [Example 1.21]
8.30

Tell me measured pIC50 for C[C@H]1CS(=O)(=O)C(C)(C)C[C@]1(F)c1cc(Cl)cnc1O[C@H]1C[C@@H](C(=O)O)N(c2nc(C(F)F)nc3c2oc2ccccc23)C1 [Example 1.16] please.
8.30
